Value source: patent US8034791B2

Catalogue of increased TNF levels readings, one per entry.
Test system: PC-3 cells
Experiment: Preliminary in vitro TNF-α induction, PC-3 cells
Type: cell-based, human
Settings: vector treated PC-3 cells (100 MOI), 24 hrs; cisplatin 250 μM, doxorubicin 3 μM, 5-FU 20 mM, paclitaxel 14 μM
Structures can show the parent of a compound that is named as a salt.
Metric: increased TNF levels (fold)

* CC(=O)O[C@H]1C(=O)[C@@]2(C)[C@H]([C@H](OC(=O)c3ccccc3)[C@]3(O)C[C@H](OC(=O)[C@H](O)[C@@H](NC(=O)c4ccccc4)c4ccccc4)C(C)=C1C3(C)C)[C@]1(OC(C)=O)CO[C@@H]1C[C@@H]2O | 1.8
* N.N.[Cl][Pt][Cl] [cisplatin] | 6.5
* O=c1[nH]cc(F)c(=O)[nH]1 | 1.8
* COc1cccc2c1C(=O)c1c(O)c3c(c(O)c1C2=O)C[C@@](O)(C(=O)CO)C[C@@H]3O[C@H]1C[C@H](N)[C@H](O)[C@H](C)O1 [doxorubicin, doxorubicin hydrochloride] | 14.5
